Reported cell viability by item:
- Tested on: MARIMO
- ASSAY_METHOD_TEXT: cell viability relative to vehicle control; higher = less cytotoxic;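 also: after 48 h exposure read by CellTiter-Glo luminescence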
- MEASUREMENT_SETUP: 10 µM; SRSF2 genotype: SRSF2 P95H/wt
Counter-ions that a name gives are not always drawn.
Entry rule: numbers only, all in %.

NN1CC(=O)NC1=O [1-Aminohydantoin Hydrochloride] ... 99.8
O=S(=O)(c1ccccc1)N(CC(F)(F)F)c1ccc(C(O)(C(F)(F)F)C(F)(F)F)cc1 ... 67.8
O=C1c2cccc(O)c2C(=O)c2c(O)cc(CO)cc21 [Aloe-emodin] ... 95.1
CN(C)CC/C=C1/c2ccccc2COc2ccc(CC(=O)O)cc21 [Olopatadine hydrochloride (Opatanol)] ... 101

Now turn to the next compound.
Request: # lookup: cell viability of CCCOC(=O)c1cc(O)c(O)c(O)c1 [Propyl gallate]
Result: 81.8

====

Reported cell viability by item:
- System: MOLM14
- ASSAY_METHOD_TEXT: cell viability relative to vehicle control; higher = less cytotoxic
- MEASUREMENT_SETUP: 10 µM; SRSF2 genotype: SRSF2 wt/wt
Entry rule: numbers only, all in %.

// solved cases for cell viability follow
O=C(/C=C/c1ccc(O)cc1)C1=C(O)[C@](O)([C@@H]2O[C@H](CO)[C@@H](O)[C@H](O)[C@H]2O)C(O)=C(/C=C2/C(=O)C(C(=O)/C=C/c3ccc(O)cc3)=C(O)[C@@](O)([C@@H]3O[C@H](CO)[C@@H](O)[C@H](O)[C@H]3O)C2=O)C1=O ... 94.9
C[C@H]1[C@H](NC(=O)/C(=N\OC(C)(C)C(=O)O)c2csc(N)n2)C(=O)N1S(=O)(=O)O ... 108
NC(=O)[C@@H]1CCCN1C(=O)[C@H](Cc1c[nH]cn1)NC(=O)[C@@H]1CCC(=O)N1 ... 100

Now turn to the next compound.
Request: # lookup: cell viability of Nc1nc(N)c2nc(-c3ccccc3)c(N)nc2n1
Result: 101

====

- System: MOLM14
- ASSAY_METHOD_TEXT: cell viability relative to vehicle control; higher = less cytotoxic
- MEASUREMENT_SETUP: 10 µM; SRSF2 genotype: SRSF2 wt/wt
Reported cell viability by item:
Entry rule: numbers only, all in %.

CC(C)=CCC[C@](C)(O[C@@H]1O[C@H](CO[C@@H]2OC[C@@H](O)[C@H](O)[C@H]2O)[C@@H](O)[C@H](O)[C@H]1O)[C@H]1CC[C@]2(C)[C@@H]1[C@H](O)C[C@@H]1[C@@]3(C)CC[C@H](O[C@@H]4O[C@H](CO)[C@@H](O)[C@H](O)[C@H]4O[C@@H]4O[C@H](CO)[C@@H](O)[C@H](O)[C@H]4O)C(C)(C)[C@@H]3CC[C@]12C [Ginsenoside Rb3] ... 102

Now turn to the next molecule.
Request: # lookup: cell viability of CC(C)(NS(=O)(=O)c1ccc2c(Cl)cnc(N=C(N)N)c2c1)C(=O)O
Result: 102

====

Reported cell viability by item:
- Test system: OCI-AML2
- ASSAY_METHOD_TEXT: cell viability relative to vehicle control; higher = less cytotoxic
- MEASUREMENT_SETUP: 10 µM; SRSF2 genotype: wt/wt
Counter-ions that a name gives are not always drawn.
Entry rule: numbers only, all in %.

// solved cases for cell viability follow
CC(NCCc1ccc(O)cc1)C(O)c1ccc(O)cc1 (configuration not stated) [Ritodrine hydrochloride (Yutopar)] ... 107
O=C(Oc1cc(S(=O)(=O)c2ccccc2)ccc1[N+](=O)[O-])c1ccc(Cl)cc1 ... 115
O=C1CCc2cc(OCCCCc3nnnn3C3CCCCC3)ccc2N1 ... 97.9
Nc1ccc(Cl)cc1C(=O)C(F)(F)F [4-Chloro-2-(trifluoroacetyl)aniline hydrochl] ... 115

Request: # lookup: cell viability of Nc1c(Br)cc(Br)cc1CN[C@H]1CC[C@H](O)CC1
Result: 112

Request: Same lookup for COc1ccc(CCO[C@@H]2O[C@H](CO[C@@H]3OC[C@H](O)[C@H](O)[C@H]3O)[C@@H](OC(=O)/C=C/c3ccc(O)c(OC)c3)[C@H](O[C@@H]3O[C@@H](C)[C@@H](O)[C@@H](O)[C@H]3O)[C@H]2O)cc1O [Angoroside C] , please.
Result: 95.5

Request: Same lookup for C[C@@H]1O[C@@H](O[C@H]2[C@H](O[C@H]3CC[C@@]4(C)[C@@H](CC[C@]5(C)[C@@H]4CC=C4[C@@H]6CC(C)(C)CC[C@]6(C(=O)O)CC[C@]45C)[C@]3(C)CO)OC[C@H](O[C@@H]3O[C@H](CO)[C@@H](O)[C@H](O)[C@H]3O)[C@@H]2O)[C@H](O)[C@H](O)[C@H]1O , please.
Result: 0.54

Request: Same lookup for CC1(C)[C@@H](O[C@H]2O[C@H](C(=O)O)[C@@H](O)[C@H](O)[C@H]2O[C@@H]2O[C@H](C(=O)O)[C@@H](O)[C@H](O)[C@H]2O)CC[C@]2(C)[C@H]3C(=O)C=C4[C@@H]5C[C@@](C)(C(=O)O)CC[C@]5(C)CC[C@@]4(C)[C@]3(C)CC[C@@H]12 [Ammonium Glycyrrhizinate (AMGZ)] , please.
Result: 95.4

Request: Same lookup for O=c1cc(-c2ccccc2)oc2c1ccc1ccccc12 , please.
Result: 99.7

Request: Same lookup for OC[C@H]1O[C@@H](Oc2cc3c(O)cc(O)cc3[o+]c2-c2ccc(O)c(O)c2)[C@H](O)[C@@H](O)[C@@H]1O [Cyanidin-3-O-glucoside chloride] , please.
Result: 86.2

Request: Same lookup for c1nc2c(NC3CCCCC3)nc(Nc3ccc(N4CCOCC4)cc3)nc2[nH]1 , please.
Result: 16.3

Request: Same lookup for COc1cc2nccc(Oc3ccc(NC(=O)C4(C(=O)Nc5ccc(F)cc5)CC4)cc3)c2cc1OC , please.
Result: 28
